Hey, just so you know, these numbers are from the supplement of paper PMC3334620.

- system under test: Yer184c (UniProt P39961)
- Sequence: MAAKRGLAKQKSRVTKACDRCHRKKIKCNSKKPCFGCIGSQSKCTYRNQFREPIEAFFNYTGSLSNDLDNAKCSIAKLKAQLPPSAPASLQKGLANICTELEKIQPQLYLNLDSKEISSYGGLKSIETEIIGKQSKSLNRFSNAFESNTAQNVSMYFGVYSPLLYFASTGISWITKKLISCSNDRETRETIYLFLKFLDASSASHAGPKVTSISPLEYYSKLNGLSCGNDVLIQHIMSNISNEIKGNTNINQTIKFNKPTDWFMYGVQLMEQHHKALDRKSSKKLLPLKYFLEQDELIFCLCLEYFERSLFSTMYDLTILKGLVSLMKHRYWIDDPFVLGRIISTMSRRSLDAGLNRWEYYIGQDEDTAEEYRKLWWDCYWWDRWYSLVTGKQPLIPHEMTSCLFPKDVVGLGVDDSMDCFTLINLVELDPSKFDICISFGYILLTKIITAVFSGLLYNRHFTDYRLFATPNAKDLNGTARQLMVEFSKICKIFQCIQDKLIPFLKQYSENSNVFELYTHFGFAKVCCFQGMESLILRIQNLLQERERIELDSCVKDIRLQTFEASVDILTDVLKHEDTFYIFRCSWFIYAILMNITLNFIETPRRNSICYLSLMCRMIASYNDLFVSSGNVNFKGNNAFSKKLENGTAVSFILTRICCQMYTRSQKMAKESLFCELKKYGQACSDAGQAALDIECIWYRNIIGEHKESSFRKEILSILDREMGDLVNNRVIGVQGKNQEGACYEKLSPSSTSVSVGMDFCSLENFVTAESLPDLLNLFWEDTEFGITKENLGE
- protocol description: PBM E-score (8-mer binding enrichment) (E-score (-0.5 to 0.5)); higher = stronger / more preferred TF binding
- details: protein concentration: 100 nM; construct: GST-full length
In all, about 33,000 sequences were measured (“E-score (-0.5 to 0.5)”: median about -0.016, highest 2% from about 0.3 on). The entries come from a sample that favours the highest values as a whole.
Assign True whenever PBM E-score does not fall below -0.04; assign False whenever it does.

residues | system under test | label class
CCTTGGAA | Yer184c (UniProt P39961) | True
GCTCTTCA | Yer184c (UniProt P39961) | False
CAGCCTTA | Yer184c (UniProt P39961) | True
CCCCGAGC | Yer184c (UniProt P39961) | True
ACATCGGA | Yer184c (UniProt P39961) | True
CAAATCGC | Yer184c (UniProt P39961) | False
ACCCGAGG | Yer184c (UniProt P39961) | True
AGCCGAGG | Yer184c (UniProt P39961) | True
ACGGTAGA | Yer184c (UniProt P39961) | False
AAAGATAT | Yer184c (UniProt P39961) | True
CCGGTAGA | Yer184c (UniProt P39961) | True
GGATTCGA | Yer184c (UniProt P39961) | False
TCGGTAGA | Yer184c (UniProt P39961) | True
AGTCGCAA | Yer184c (UniProt P39961) | True
CCGTCTCG | Yer184c (UniProt P39961) | True
CACCGAGC | Yer184c (UniProt P39961) | True
TAAATCCA | Yer184c (UniProt P39961) | True
GCATCGGC | Yer184c (UniProt P39961) | True
AGCTCATG | Yer184c (UniProt P39961) | False
CGTCCCCA | Yer184c (UniProt P39961) | False
GACTGGTA | Yer184c (UniProt P39961) | True
AACGGCCG | Yer184c (UniProt P39961) | True
